Could you please report measured IC50 for the items listed next?
assay_explanation: Nitric oxide (NO) free radical scavenging assay (Griess reagent)
conditions: mean ± SD; 1-50 μM
Only the number, expressed in µM, is required.

Prompt: Form field: reported IC50 of COc1c(Br)c(OC)c2c(=O)cc(-c3ccc(C(C)C)cc3)oc2c1Br [3f]
Completion: 12.1

Prompt: Form field: reported IC50 of COc1ccc(-c2cc(=O)c3c(OC)c(Br)c(OC)c(Br)c3o2)cc1 [3d]
Completion: 5.3

Prompt: Form field: reported IC50 of COc1c(Br)c(OC)c2c(=O)cc(-c3ccc(C)cc3)oc2c1Br [3e]
Completion: 13.3

Prompt: Form field: reported IC50 of COc1c(Br)c(OC)c2c(=O)cc(-c3ccc(F)cc3)oc2c1Br [3b]
Completion: 5.4

Prompt: Form field: reported IC50 of COc1c(Br)c(O)c(C(=O)/C=C/c2ccc(C(C)C)cc2)c(OC)c1Br [2f]
Completion: 17.4

Prompt: Form field: reported IC50 of COc1ccc(/C=C/C(=O)c2c(O)c(Br)c(OC)c(Br)c2OC)cc1 [2d]
Completion: 9.5

Prompt: Form field: reported IC50 of O=c1c(O)c(-c2ccc(O)c(O)c2)oc2cc(O)cc(O)c12 [Quercetin, reference compound]
Completion: 4.8

Prompt: Form field: reported IC50 of COc1c(Br)c(O)c(C(=O)/C=C/c2ccccc2)c(OC)c1Br [2a]
Completion: 11

Prompt: Form field: reported IC50 of COc1c(Br)c(OC)c2c(=O)cc(-c3ccc(Cl)cc3)oc2c1Br [3c]
Completion: 4.7

Prompt: Form field: reported IC50 of COc1c(Br)c(O)c(C(=O)/C=C/c2ccc(F)cc2)c(OC)c1Br [2b]
Completion: 6.5

Prompt: Form field: reported IC50 of COc1c(Br)c(O)c(C(=O)/C=C/c2ccc(Cl)cc2)c(OC)c1Br [2c]
Completion: 28

###

target_or_test_system: α-glucosidase type 1 from Saccharomyces cerevisiae (Saccharomyces cerevisiae)
Construct: purchased Merck Life Science (Pty) Ltd. (Sigma-Aldrich) G5003
Sequence (P53341 whole entry): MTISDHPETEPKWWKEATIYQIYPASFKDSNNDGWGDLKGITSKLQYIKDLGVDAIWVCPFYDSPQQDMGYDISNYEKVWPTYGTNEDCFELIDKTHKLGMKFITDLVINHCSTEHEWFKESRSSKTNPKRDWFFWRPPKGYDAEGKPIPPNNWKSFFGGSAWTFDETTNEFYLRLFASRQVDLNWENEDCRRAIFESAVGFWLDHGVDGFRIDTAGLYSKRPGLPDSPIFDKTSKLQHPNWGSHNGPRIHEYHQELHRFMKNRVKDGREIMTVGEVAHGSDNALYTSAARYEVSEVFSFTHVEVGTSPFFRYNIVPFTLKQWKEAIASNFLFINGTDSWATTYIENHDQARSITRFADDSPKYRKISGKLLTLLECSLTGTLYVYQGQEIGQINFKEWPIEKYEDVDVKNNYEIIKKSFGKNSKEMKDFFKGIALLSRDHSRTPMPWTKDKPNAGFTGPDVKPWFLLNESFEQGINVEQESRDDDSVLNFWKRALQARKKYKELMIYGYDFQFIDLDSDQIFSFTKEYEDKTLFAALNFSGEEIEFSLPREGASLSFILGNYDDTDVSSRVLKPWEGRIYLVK
assay_explanation: biochemical
Format: biochemical
recorded_endpoint: pIC50
Formally, pIC50 is defined as -log10 of the concentration c, with c in mol/L.

Prompt: Form field: reported pIC50 of COc1c(Br)c(OC)c2c(=O)cc(-c3ccccc3)oc2c1Br [3a]
Completion: 4.85

Prompt: Form field: reported pIC50 of COc1c(Br)c(O)c(C(=O)/C=C/c2ccccc2)c(OC)c1Br [2a]
Completion: 4.84

Prompt: Form field: reported pIC50 of COc1c(Br)c(O)c(C(=O)/C=C/c2ccc(C(C)C)cc2)c(OC)c1Br [2f]
Completion: 4.63

Prompt: Form field: reported pIC50 of COc1c(Br)c(O)c(C(=O)/C=C/c2ccc(Cl)cc2)c(OC)c1Br [2c]
Completion: 4.91

Prompt: Form field: reported pIC50 of COc1c(Br)c(O)c(C(=O)/C=C/c2ccc(C)cc2)c(OC)c1Br [2e]
Completion: 4.56

Prompt: Form field: reported pIC50 of COc1ccc(/C=C/C(=O)c2c(O)c(Br)c(OC)c(Br)c2OC)cc1 [2d]
Completion: 4.79

###

Could you please report measured melting point for the items listed next?

Prompt: Form field: reported melting point of COc1c(Br)c(O)c(C(=O)/C=C/c2ccccc2)c(OC)c1Br
Completion: 106 to 108 °C

Prompt: Form field: reported melting point of COc1ccc(/C=C/C(=O)c2c(O)c(Br)c(OC)c(Br)c2OC)cc1
Completion: 155 to 158 °C

Prompt: Form field: reported melting point of COc1c(Br)c(OC)c2c(=O)cc(-c3ccc(Cl)cc3)oc2c1Br
Completion: 280 to 283 °C

Prompt: Form field: reported melting point of COc1c(Br)c(O)c(C(=O)/C=C/c2ccc(C(C)C)cc2)c(OC)c1Br
Completion: 128 to 130 °C

Prompt: Form field: reported melting point of COc1c(Br)c(OC)c2c(=O)cc(-c3ccc(C(C)C)cc3)oc2c1Br
Completion: 165 to 167 °C

Prompt: Form field: reported melting point of COc1c(Br)c(OC)c2c(=O)cc(-c3ccc(C)cc3)oc2c1Br
Completion: 205 to 206 °C

Prompt: Form field: reported melting point of COc1c(Br)c(O)c(C(=O)/C=C/c2ccc(C)cc2)c(OC)c1Br
Completion: 151 to 152 °C

Prompt: Form field: reported melting point of COc1c(Br)c(O)c(C(=O)/C=C/c2ccc(F)cc2)c(OC)c1Br
Completion: 132 to 134 °C

Prompt: Form field: reported melting point of COc1c(Br)c(O)c(C(=O)/C=C/c2ccc(Cl)cc2)c(OC)c1Br
Completion: 150 to 152 °C

Prompt: Form field: reported melting point of COc1c(Br)c(OC)c2c(=O)cc(-c3ccccc3)oc2c1Br
Completion: 216 to 218 °C

Prompt: Form field: reported melting point of COc1ccc(-c2cc(=O)c3c(OC)c(Br)c(OC)c(Br)c3o2)cc1
Completion: 233 to 236 °C

Prompt: Form field: reported melting point of COc1c(Br)c(OC)c2c(=O)cc(-c3ccc(F)cc3)oc2c1Br
Completion: 288 to 289 °C

###

System: Vero cells
assay_explanation: Cytotoxicity, CellTiter-Blue cell viability assay
Assay type: cell-based, African green monkey (Cercopithecus aethiops)
conditions: 24 h treatment; 1-100 μM
recorded_endpoint: pIC50
Formally, pIC50 is defined as -log10 of the concentration c, with c in mol/L.

Prompt: Form field: reported pIC50 of COc1c(Br)c(OC)c2c(=O)cc(-c3ccccc3)oc2c1Br
Completion: 4.79

###

Could you please report measured IC50 for the items listed next?
Only the number, expressed in µM, is required.

Prompt: Kindly state the measured IC50 obtained for COc1c(Br)c(OC)c2c(=O)cc(-c3ccc(C(C)C)cc3)oc2c1Br with UniProt:P04746.
Sequence (P04746 16-511): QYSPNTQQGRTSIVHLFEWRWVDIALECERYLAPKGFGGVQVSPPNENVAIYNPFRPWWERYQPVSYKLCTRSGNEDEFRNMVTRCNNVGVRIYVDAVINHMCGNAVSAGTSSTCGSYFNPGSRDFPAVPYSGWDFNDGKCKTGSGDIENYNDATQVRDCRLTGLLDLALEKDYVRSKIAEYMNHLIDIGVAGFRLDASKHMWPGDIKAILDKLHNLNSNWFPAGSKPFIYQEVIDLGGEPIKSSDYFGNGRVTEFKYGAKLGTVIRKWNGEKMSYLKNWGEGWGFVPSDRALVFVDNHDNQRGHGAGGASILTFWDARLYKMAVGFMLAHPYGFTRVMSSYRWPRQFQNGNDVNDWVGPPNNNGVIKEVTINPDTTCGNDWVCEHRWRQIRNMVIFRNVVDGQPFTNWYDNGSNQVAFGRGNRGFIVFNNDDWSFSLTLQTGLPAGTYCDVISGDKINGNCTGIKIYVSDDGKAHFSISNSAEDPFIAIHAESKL
Completion: 28

Prompt: Kindly state the measured IC50 obtained for COc1c(Br)c(O)c(C(=O)/C=C/c2ccccc2)c(OC)c1Br with UniProt:P04746.
Completion: 7.3

Prompt: Kindly state the measured IC50 obtained for COc1c(Br)c(O)c(C(=O)/C=C/c2ccc(F)cc2)c(OC)c1Br with UniProt:P04746.
Completion: 6.5

Prompt: Kindly state the measured IC50 obtained for COc1c(Br)c(O)c(C(=O)/C=C/c2ccc(Cl)cc2)c(OC)c1Br with UniProt:P04746.
Completion: 18

Prompt: Kindly state the measured IC50 obtained for COc1c(Br)c(OC)c2c(=O)cc(-c3ccc(C)cc3)oc2c1Br with UniProt:P04746.
Completion: 25.4

###

Tested on: A549 cells
assay_explanation: Cytotoxicity, CellTiter-Blue cell viability assay
Format: cell-based, human
conditions: 24 h treatment; 1-100 μM
recorded_endpoint: pIC50
Formally, pIC50 is defined as -log10 of the concentration c, with c in mol/L.

Prompt: Kindly state the measured pIC50 obtained for COc1c(Br)c(OC)c2c(=O)cc(-c3ccccc3)oc2c1Br with A549 cells.
Completion: 4.91
